biological target: GGTase I (Homo sapiens, UniProt P49354+P53609); construct: GGTase I and FTase activities from 60,000×g supernatants of human Burkitt's lymphoma (Daudi) cells; host or cells: Daudi (human Burkitt's lymphoma) cells, 60,000xg supernatant; test: In vitro GGTase I activity assay ([3H]GGPP transfer to H-Ras-CVLL); type: biochemical; details: in vitro competition assay; read-out: Ki, competitive inhibition of GGTase I against H-Ras-CVLL protein
result type: Ki (nM)
Numbers only, in nM.

Exam item: Data request, read-out Ki, for Cc1nc[nH]c1CN1CCN(C(=O)N[C@@H](CC(C)C)C(=O)O)[C@@H](Cc2ccccc2)C1=O [GGTI-2418]
Marked response: 4.4
